Sourced from patent US9206156B2

- systemUnderTest: ORL1 receptor (Homo sapiens, UniProt P41146)
- Construct: expressed in transfected cells; host or cells: CHO (recombinant CHO-ORL1 cells), membranes
- Sequence (P41146 whole entry): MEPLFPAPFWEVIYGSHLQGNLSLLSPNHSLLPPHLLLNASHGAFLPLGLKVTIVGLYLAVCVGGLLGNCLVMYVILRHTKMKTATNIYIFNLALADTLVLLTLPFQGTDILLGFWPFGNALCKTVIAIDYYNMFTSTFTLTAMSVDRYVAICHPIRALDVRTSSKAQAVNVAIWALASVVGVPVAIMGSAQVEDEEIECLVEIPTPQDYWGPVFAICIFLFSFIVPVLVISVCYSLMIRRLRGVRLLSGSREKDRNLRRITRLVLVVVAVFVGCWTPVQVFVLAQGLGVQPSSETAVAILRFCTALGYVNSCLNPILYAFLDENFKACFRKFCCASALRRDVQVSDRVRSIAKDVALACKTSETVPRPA
- experiment: ORL1 receptor binding assay with 3H-nociceptin/orphanin FQ (WGA-SPA beads)
- testContext: c=1 μM test substance; 0.5 nM 3H-nociceptin/orphanin FQ; membranes of recombinant CHO-ORL1 cells
reportedEndpoint: inhibition at 1 µM (%)
Quick note: give the figure in %, leave out the unit.

Give the measured inhibition at 1 µM of CN(C)C1(c2ccccc2)CCN(C(=O)C2CN(Cc3ccc4cc[nH]c4c3)c3ccccc32)CC1 (centres unmarked) .
38

Try the compound CN(C)C1(c2cccs2)CCN(C(=O)CC(NC(=O)C2CCCc3c2[nH]c2ccc(Cl)cc32)c2ccccc2)CC1 (centres unmarked)
77

One more compound: CC(CC(=O)N(C)CCCN1CCC(c2ccccc2)(N(C)C)CC1)c1c[nH]c2ccccc12 (centres unmarked)
60

Subsequent entry: CN(C)C1(c2ccccc2)CCN(C(=O)C2CCCN(C(=O)c3c[nH]c4ccccc34)C2)CC1 (centres unmarked)
34

Here is the next compound: CN(C)C1(c2ccccc2)CCN(C(=O)CCNCc2cccc3cc[nH]c23)CC1
73

Now give it for CN(CCN1CCC(c2ccccc2)(N(C)C)CC1)C(=O)CCc1c[nH]c2ccccc12 too.
86

Consider next the compound CN(C(=O)CCc1c[nH]c2ccccc12)C(C(=O)N1CCC(c2cccs2)(N(C)C)CC1)c1ccccc1 (centres unmarked) in the same way.
60

What about CC(CC(=O)NCCC(=O)N1CCC(c2ccccc2)(N(C)C)CC1)c1c[nH]c2ccccc12 (centres unmarked) ?
88

---

- systemUnderTest: human μ-opiate receptor (Homo sapiens)
- Construct: purchased NEN, Zaventem, Belgium RB-HOM; host or cells: CHO-K1 cells (membrane preparation)
- experiment: μ-opiate receptor binding assay with [3H] naloxone (WGA-SPA beads)
- testContext: 1 μmol/l test substance; 1 nmol/l [3H] naloxone; CHO-K1 cell membranes expressing human μ-opiate receptor
Assign criterion met whenever inhibition at 1 µM does not fall below 80%; assign criterion not met whenever it does.

Evaluate CC(CC(=O)N(C)CCN1CCC(c2ccccc2)(N(C)C)CC1)c1c[nH]c2ccccc12 (stereo not shown) [Example 20] : inhibition at 1 µM at minimum 80%?
criterion met

Try this molecule too: CN(C)c1ccc2cc(C(=O)N3CCCC(C(=O)N4CCC(c5ccccc5)(N(C)C)CC4)C3)[nH]c2c1 (stereo not shown) [Example 136]
criterion not met

Note, next up: CN(C)C1(c2ccccc2)CCN(C(=O)C2CCCN(C(=O)c3c[nH]c4ccccc34)C2)CC1 (stereo not shown) [Example 131]
criterion not met

Please do the same for CN(CCN1CCC(c2ccccc2)(N2CCCC2)CC1)C(=O)c1cc2cc(F)ccc2[nH]1 [Example 51] as well.
criterion not met

Entry CN(C)C1(c2ccccc2)CCN(C(=O)C2CCCN(C(=O)c3ccc4cc[nH]c4c3)C2)CC1 (stereo not shown) [Example 125] please
criterion not met

// same read-out, input: CN(C)C1(c2ccccc2)CCN(C(=O)C2CCCN(C(=O)c3cccc4c3ccn4C)C2)CC1 (stereo not shown) [Example 130]
criterion not met

Another molecule: CN(C)C1(c2ccccc2)CCN(C(=O)CCNC(=O)c2ccc3ccn(C)c3c2)CC1 [Example 99]
criterion met

Repeat for the following molecule: CN(C)C1(c2ccccc2)CCN(C(=O)C2CCCN(C(=O)c3ccc4ccn(C)c4c3)C2)CC1 (stereo not shown) [Example 128]
criterion not met

And CN(CCCN1CCC(c2ccccc2)(N(C)C)CC1)C(=O)c1ccc2cc[nH]c2c1 [Example 56] ?
criterion not met

Field entry: CN(C)C1(c2ccccc2)CCN(C(=O)CCNCc2c[nH]c3ccccc23)CC1 [Example 139]
criterion met

Let us now turn to CC(C)C(CC(=O)N1CC(C(=O)N2CCC(c3ccccc3)(N(C)C)CC2)c2ccccc21)c1c[nH]c2ccccc12 (stereo not shown) [Example 89]
criterion met

How about this molecule: CN(Cc1ccc2[nH]ccc2c1)C(C(=O)N1CCC(c2cccs2)(N(C)C)CC1)c1ccccc1 (stereo not shown) [Example 147]
criterion not met

Please answer likewise for CN(C)C1(c2cccs2)CCN(C(=O)CC(NCc2cccc3cc[nH]c23)c2ccccc2)CC1 (stereo not shown) [Example 173]
criterion met

---

- systemUnderTest: human μ-opiate receptor (Homo sapiens, UniProt P35372)
- Construct: purchased NEN, Zaventem, Belgium RB-HOM; host or cells: CHO-K1 cells (membrane preparation)
- Sequence (P35372 whole entry): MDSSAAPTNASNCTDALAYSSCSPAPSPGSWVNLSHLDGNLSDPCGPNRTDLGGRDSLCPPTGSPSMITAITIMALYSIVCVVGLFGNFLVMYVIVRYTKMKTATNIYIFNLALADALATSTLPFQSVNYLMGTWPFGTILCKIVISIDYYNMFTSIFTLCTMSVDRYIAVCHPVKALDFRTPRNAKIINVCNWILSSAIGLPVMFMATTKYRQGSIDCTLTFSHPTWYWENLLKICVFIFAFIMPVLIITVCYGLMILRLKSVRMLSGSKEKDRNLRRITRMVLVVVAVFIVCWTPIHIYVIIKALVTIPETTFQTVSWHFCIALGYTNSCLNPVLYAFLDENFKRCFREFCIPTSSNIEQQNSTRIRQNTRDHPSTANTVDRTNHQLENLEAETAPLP
- experiment: μ-opiate receptor binding assay with [3H] naloxone (WGA-SPA beads)
- testContext: 1 μmol/l test substance; 1 nmol/l [3H] naloxone; CHO-K1 cell membranes expressing human μ-opiate receptor
Param threshold (90%) applies to inhibition at 1 µM; output 1 when value >= threshold, 0 when value < threshold.

Determine whether measured inhibition at 1 µM meets or exceeds 90% for Cc1c(CN(C)CCN2CCC(c3ccccc3)(N(C)C)CC2)c2ccccc2n1C [Example 189]
1

# repeat for CN(C)C1(c2cccs2)CCN(CCNCc2c[nH]c3ccc(Cl)cc23)CC1 [Example 178]
1

Again, but for CN(C)C1(c2ccccc2)CCN(C(=O)CCNCc2c[nH]c3ccc(Br)cc23)CC1 [Example 162]
0

Okay, and CN(CCN1CCC(c2ccccc2)(N2CCCC2)CC1)Cc1cccc2[nH]ccc12 [Example 159] ?
0

Field entry: CC(C)C(CC(=O)N(C)CCCN1CCC(c2cccs2)(N(C)C)CC1)c1c[nH]c2ccccc12 (centres unmarked) [Example 23]
0

Item: COc1ccc2[nH]c(C(=O)NCCC(=O)N3CCC(c4ccccc4)(N(C)C)CC3)cc2c1 [Example 129]
0

// repeat for CC(C)C(CC(=O)NCC(=O)N1CCC(c2cccs2)(N(C)C)CC1)c1c[nH]c2ccccc12 (centres unmarked) [Example 88] and report
1

Next up: CN(C)C1(c2cccs2)CCN(C(=O)CNC(=O)c2cccc3c2ccn3C)CC1 [Example 135]
0

Continue with CN(CCN1CCC(c2ccccc2)(N2CCCC2)CC1)C(=O)CCc1cn(C)c2ccccc12 [Example 48]
0

Can you handle CN(CCN1CCC(c2ccccc2)(N(C)C)CC1)C(=O)CCc1cn(C)c2ccccc12 [Example 14] next?
0

Continue with CN(CCCN1CCC(c2ccccc2)(N(C)C)CC1)C(=O)C1CCCc2c1[nH]c1ccc(Cl)cc21 (centres unmarked) [Example 35]
0

What would you report for CC(C)C(C(=O)N1CCC(c2ccccc2)(N(C)C)CC1)N(C)C(=O)CCc1cn(C)c2ccccc12 (centres unmarked) [Example 132] ?
0

Also, Cc1[nH]c2ccccc2c1CNCCC(=O)N1CCC(c2ccccc2)(N(C)C)CC1 [Example 167] please.
0

Same again, this time with CN(C)C1(c2cccs2)CCN(C(=O)CC(NCc2c[nH]c3ccc(Br)cc23)c2ccccc2)CC1 (centres unmarked) [Example 163]
0

Further, for CC(CC(=O)N(C)CCN1CCC(c2ccccc2)(N2CCCC2)CC1)c1c[nH]c2ccccc12 (centres unmarked) [Example 57] ?
0

Next record, please: CN(C)C1(c2cccs2)CCN(C(=O)CC(NC(=O)C2CCCc3c2[nH]c2ccc(Cl)cc32)c2ccccc2)CC1 (centres unmarked) [Example 97]
0

Do the same for COc1ccc2c(c1)c(CNCCN1CCC(c3cccs3)(N(C)C)CC1)c(C)n2Cc1ccccc1 [Example 78] please
1

Param item: CN(CCCN1CCC(c2ccccc2)(N(C)C)CC1)C(=O)c1ccc2ccn(C)c2c1 [Example 39]
0

Subsequent entry: CN(C)C1(c2ccccc2)CCN(C(=O)C2CCCN(Cc3c[nH]c4ccccc34)C2)CC1 (centres unmarked) [Example 151]
0

Please answer likewise for COc1ccc2[nH]c(C(=O)N(C)CCCN3CCC(c4cccs4)(N(C)C)CC3)cc2c1 [Example 22]
0

Quick one: COc1ccc2c(c1)c(CN(C)CCN1CCC(c3ccccc3)(N(C)C)CC1)c(C)n2Cc1ccccc1 [Example 193]
0

Same question for CC(CC(=O)N(C)CCCN1CCC(c2ccccc2)(N(C)C)CC1)c1c[nH]c2ccccc12 (centres unmarked) [Example 59] please.
0

Same thing, different compound: CN(CCN1CCC(c2ccccc2)(N(C)C)CC1)C(=O)c1ccc2ccn(C)c2c1 [Example 119]
1

Also check Cc1[nH]c2ccccc2c1CN1CCCC(C(=O)N2CCC(c3ccccc3)(N(C)C)CC2)C1 (centres unmarked) [Example 156]
0

What do you have for CCCCC1(N(C)C)CCN(CCN(C)C(=O)c2cc3cc(OC)ccc3[nH]2)CC1 [Example 65] ?
0

Further, for CN(CCN1CCC(c2ccccc2)(N(C)C)CC1)Cc1ccc2cc[nH]c2c1 [Example 181] ?
0

For CC(C)C(C(=O)N1CCC(c2ccccc2)(N(C)C)CC1)N(C)Cc1ccc2[nH]ccc2c1 (centres unmarked) [Example 146] then?
0

Entry CN(C)C1(c2cccs2)CCN(CCNC(=O)CCc2c[nH]c3ccccc23)CC1 [Example 5] please
1

Follow-up entry: CN(C)C1(c2cccs2)CCN(CCNC(=O)c2cccc3c2ccn3C)CC1 [Example 10]
1

Try CC(C)C(CC(=O)NCCC(=O)N1CCC(c2ccccc2)(N(C)C)CC1)c1c[nH]c2ccccc12 (centres unmarked) [Example 84] next.
1
